# TGT: T1, human transferrin receptor (recombinant, SPR) (human, UniProt P02786 89-760)
# T1 construct: also called huTfR; human transferrin receptor-biotinylated
# TEST_SUMMARY: SPR B4000 25C (Example 31)
PARAMETER: koff (s⁻¹)
Numbers only, in s⁻¹.

2/99 VH23-DASG/VK9-SYA (antibody, V domains shown) VH: QSMQESGPGLVKPSQTLSLTCTVSGFSLSSYAMSWIRQHPGKGLEWIGYIWSGGSTDYASWAKSRVTISKTSTTVSLKLSSVTAADTAVYYCARRYGTSYPDYGDASGFDPWGQGTLVTVSS VL: AIQLTQSPSSLSASVGDRVTITCRASQSISSYLAWYQQKPGKAPKLLIYRASTLASGVPSRFSGSGSGTDFTLTISSLQPEDFATYYCQQSYASSNVDNTFGGGTKVEI : 0.000484
2/99 VH23-DASG/VK9-GYS (antibody, V domains shown) VH: QSMQESGPGLVKPSQTLSLTCTVSGFSLSSYAMSWIRQHPGKGLEWIGYIWSGGSTDYASWAKSRVTISKTSTTVSLKLSSVTAADTAVYYCARRYGTSYPDYGDASGFDPWGQGTLVTVSS VL: AIQLTQSPSSLSASVGDRVTITCRASQSISSYLAWYQQKPGKAPKLLIYRASTLASGVPSRFSGSGSGTDFTLTISSLQPEDFATYYCQQGYSSSNVDNTFGGGTKVEI : 0.00373
2/99 VH23-DAQG/VK9-SYA (antibody, V domains shown) VH: QSMQESGPGLVKPSQTLSLTCTVSGFSLSSYAMSWIRQHPGKGLEWIGYIWSGGSTDYASWAKSRVTISKTSTTVSLKLSSVTAADTAVYYCARRYGTSYPDYGDAQGFDPWGQGTLVTVSS VL: AIQLTQSPSSLSASVGDRVTITCRASQSISSYLAWYQQKPGKAPKLLIYRASTLASGVPSRFSGSGSGTDFTLTISSLQPEDFATYYCQQSYASSNVDNTFGGGTKVEI : 0.000755

Please examine the following record next.
Looking for the measured koff of 2/99 VH9-DAQG/VK9-NYA (antibody, V domains shown) VH: QQLLESGGGLVQPGGSLRLSCAASGFTFSSYAMSWVRQAPGKGLEWVGYIWSGGSTDYADSVKGRFTISRDNSKNTLYLQMNSLRAEDTAVYYCAKRYGTSYPDYGDAQGFDPWGQGTLVTVSS VL: AIQLTQSPSSLSASVGDRVTITCRASQSISSYLAWYQQKPGKAPKLLIYRASTLASGVPSRFSGSGSGTDFTLTISSLQPEDFATYYCQQNYASSNVDNTFGGGTKVEI , can you help? 0.00125
